MIC B. subtilis for assorted substances
# System: Bacillus subtilis 168 HT
# Assay type: cell-based
# assayContext: 16 h
Ends that are not written are not given here.
Note: unit µM is implicit; provide only the numeric part.

Worked set:
Request: For EKDWPRRILYCF-NH2 [A2R3P10] , what is its reported MIC B. subtilis?
Result: 50.0

Request: Also check EKRWRRLIFNYF-NH2 [Hm-AMP2, reference compound]
Result: 12.5

Request: Also check SLMFKTVKKMDNSVKKRFREGMAIAMQCGPR-NH2 [CR2P9]
Result: 25.0

Request: Also check EKGWRRWIFNYF-NH2 [A2R1P5]
Result: 6.2

Request: Also check SFVCKTVKKMNNSAKKGFREGIALAIQGGPR-NH2 [CR2P8]
Result: 25.0

---
Request: For EKGWLRRIFYCF-NH2 [A2R3P8] , what is its reported MIC B. subtilis?
Result: 6.2

Request: Also check SLMFITVKKLDNSSRIRIRVGIAIAIQGGPR-NH2 [CR2P2]
Result: 25.0

###

MIC B. subtilis for assorted substances
# Test system: Bacillus subtilis 168 HT
# Format: cell-based
# assayContext: 16 h
Ends that are not written are not given here.
Note: unit µM is implicit; provide only the numeric part.

Request: For EKGRRRWIFYFF-NH2 [A2R3P7] , what is its reported MIC B. subtilis?
Result: 25.0

---
Request: For EKGWRRWIFYCF-NH2 [A2R2P3] , what is its reported MIC B. subtilis?
Result: 25.0

Request: Also check EKGWRRWIFFSF-NH2 [A2R3P6]
Result: 12.5

Request: Also check EIGWRRRICNYL-NH2 [A2R2P7]
Result: 6.2
